Assay: Inhibition of potato 5-lipoxygenase using linoleic acid as substrate preincubated for 2 mins followed by substrate addition measured for 120 secs
Set-up: species or system Solanum tuberosum
Observable: IC50

Ask | Endpoint output: IC50 of C[C@H]1[C@H](C)CC[C@]2(C)CC[C@]3(C)C(=CC(=O)[C@@H]4[C@@]5(C)CC(C=O)C(=O)[C@](C)(C(N)=O)[C@@H]5CC[C@]43C)[C@H]12 (stereo partly drawn) . Value?
Reply | > 100 mg/L

Ask | Would you kindly repeat that for `C[C@H]1[C@H](C)CC[C@]2(C)CC[C@]3(C)C(=CC(=O)[C@@H]4[C@@]5(C)Cc6cnoc6[C@](C)(C(=O)N6CCN(C)CC6)[C@@H]5CC[C@]43C)[C@H]12` ?
Reply | > 100 mg/L

Ask | Also C[C@H]1[C@H](C)CC[C@]2(C)CC[C@]3(C)C(=CC(=O)[C@@H]4[C@@]5(C)CC(C=O)C(=O)[C@](C)(C(=O)Nc6ccccc6)[C@@H]5CC[C@]43C)[C@H]12 (stereo partly drawn) , if possible.
Reply | 19.53 mg/L

* * *

Assay: Inhibition of potato 5-lipoxygenase using linoleic acid as substrate preincubated for 2 mins followed by substrate addition measured for 120 secs
Set-up: species or system Solanum tuberosum
Observable: IC50

Compound | IC50
C[C@H]1[C@H](C)CC[C@]2(C)CC[C@]3(C)C(=CC(=O)[C@@H]4[C@@]5(C)Cc6cn[nH]c6[C@](C)(C(=O)N6CCN(C)CC6)[C@@H]5CC[C@]43C)[C@H]12 | > 100 µg/mL
C[C@H]1[C@H](C)CC[C@]2(C)CC[C@]3(C)C(=CC(=O)[C@@H]4[C@@]5(C)Cc6cnoc6[C@](C)(C(=O)N6CCCCC6)[C@@H]5CC[C@]43C)[C@H]12 | 20.31 µg/mL
C[C@H]1[C@H](C)CC[C@]2(C)CC[C@]3(C)C(=CC(=O)[C@@H]4[C@@]5(C)Cc6cn[nH]c6[C@](C)(C(=O)O)[C@@H]5CC[C@]43C)[C@H]12 | > 100 µg/mL
C[C@H]1[C@H](C)CC[C@]2(C)CC[C@]3(C)C(=CC(=O)[C@@H]4[C@@]5(C)Cc6cn[nH]c6[C@](C)(C(=O)N6CCNCC6)[C@@H]5CC[C@]43C)[C@H]12 | > 100 µg/mL

Next compound, please.
Ask | Find the recorded IC50 belonging to C[C@H]1[C@H](C)CC[C@]2(C)CC[C@]3(C)C(=CC(=O)[C@@H]4[C@@]5(C)CC(C=O)C(=O)[C@](C)(C(=O)N6CCOCC6)[C@@H]5CC[C@]43C)[C@H]12 (stereo not given in full) and report it.
Reply | > 100 µg/mL

* * *

Experiment: Inhibition of potato 5-lipoxygenase using linoleic acid as substrate preincubated for 2 mins followed by substrate addition measured for 120 secs
Design: species or system Solanum tuberosum
# IC50 listing for each entry below

Molecule | IC50
CC(=O)O[C@@H]1CC[C@@]2(C)[C@@H](CC[C@]3(C)[C@@H]2C(=O)C=C2[C@@H]4[C@@H](C)[C@H](C)CC[C@]4(C)CC[C@]23C)[C@@]1(C)C(=O)O | 94.6 µg/mL
C[C@H]1[C@H](C)CC[C@]2(C)CC[C@]3(C)C(=CC(=O)[C@@H]4[C@@]5(C)CC(C=O)C(=O)[C@@H](C)[C@@H]5CC[C@]43C)[C@H]12 (stereo partly specified) | 44.14 µg/mL
COC(=O)[C@@]1(C)c2oncc2C[C@@]2(C)[C@H]1CC[C@]1(C)[C@@H]2C(=O)C=C2[C@@H]3[C@@H](C)[C@H](C)CC[C@]3(C)CC[C@]21C | > 100 µg/mL
C[C@H]1[C@H](C)CC[C@]2(C)CC[C@]3(C)C(=CC(=O)[C@@H]4[C@@]5(C)Cc6cn[nH]c6[C@](C)(C(=O)N6CCCCC6)[C@@H]5CC[C@]43C)[C@H]12 | > 100 µg/mL
C[C@H]1[C@H](C)CC[C@]2(C)CC[C@]3(C)C(=CC(=O)[C@@H]4[C@@]5(C)CC(C=O)C(=O)[C@](C)(C(=O)N6CCCCC6)[C@@H]5CC[C@]43C)[C@H]12 (stereo partly specified) | > 100 µg/mL

Ask | What IC50 value was documented for this molecule, `COC(=O)[C@@]1(C)C(=O)C(C#N)=C[C@]2(C)[C@H]3C(=O)C=C4[C@@H]5[C@@H](C)[C@H](C)CC[C@]5(C)CC[C@@]4(C)[C@]3(C)CC[C@@H]12` ?
Reply | > 100 µg/mL
